Here we list molecules with their recorded pIC50 when tested on Glycogen synthase kinase-3 beta (Homo sapiens).
pIC50: −log10 of the molar value.
READOUT LABEL: pIC50

>>> reported("O=C(CCl)c1ccc(Cl)cc1")
5.60
>>> reported("O=C(CCl)c1cccs1")
4.30
>>> reported("O=C(CCl)c1c(Br)sc(Cl)c1Cl")
5.70
>>> reported("O=C(CCl)c1cscc1Cl")
4.60
>>> reported("O=C(CCl)c1csc(C(=O)CCl)c1")
5.82
>>> reported("O=C(CBr)c1ccc(-c2ccccc2)cc1")
5.60
>>> reported("Cc1ccsc1C(=O)CCl")
4.12
>>> reported("O=C(CCl)c1ccccc1 [PHENACYL CHLORIDE]")
4.30
>>> reported("CC(=O)c1csc(C(=O)CCl)c1")
5.10

----------
# key: entry, value: IC50
- TGT: Glycogen synthase kinase-3 beta (Homo sapiens, UniProt P49841)
- Sequence (P49841 whole entry): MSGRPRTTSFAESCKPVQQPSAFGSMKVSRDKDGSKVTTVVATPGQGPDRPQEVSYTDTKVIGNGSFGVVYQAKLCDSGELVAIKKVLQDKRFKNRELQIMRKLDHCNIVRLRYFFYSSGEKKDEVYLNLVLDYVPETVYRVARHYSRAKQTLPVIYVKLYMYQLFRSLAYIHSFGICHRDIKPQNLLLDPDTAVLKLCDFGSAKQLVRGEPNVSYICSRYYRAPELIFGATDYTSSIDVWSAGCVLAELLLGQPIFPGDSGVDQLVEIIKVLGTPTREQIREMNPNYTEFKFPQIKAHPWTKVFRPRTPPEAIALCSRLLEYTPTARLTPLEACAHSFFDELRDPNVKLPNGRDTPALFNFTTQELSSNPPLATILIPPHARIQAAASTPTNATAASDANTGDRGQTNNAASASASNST
READOUT LABEL: IC50 (µM)

>>> reported("Cc1c(C(=O)CCl)csc1C(=O)CCl")
5
>>> reported("O=C(CBr)c1ccc(Br)cc1")
0.5
>>> reported("Cc1sc(C(=O)CCl)cc1C(=O)CCl")
5
>>> reported("O=C(CBr)c1ccccc1")
5
>>> reported("O=C(CCl)c1cc(Cl)c(Cl)s1")
2.5
>>> reported("O=C(CCl)c1scc(Br)c1Br")
0.5
>>> reported("O=C(CCl)c1ccc(Br)s1")
10
>>> reported("O=C(CCl)c1cc(Br)c(Br)s1")
1
>>> reported("O=C(CCl)c1ccc(Cl)s1")
10
>>> reported("O=C(CCl)c1c(Br)sc(Br)c1Br")
1
>>> reported("O=C(CCl)c1cc(Cl)sc1Cl")
5
>>> reported("CC(=O)c1ccc(C(=O)CCl)s1")
50
>>> reported("O=C(CCl)c1cc(Br)cs1")
3

----------
pIC50: −log10 of the molar value.
Here we list compounds with their recorded pIC50 when tested on Glycogen synthase kinase-3 beta (Homo sapiens).
READOUT LABEL: pIC50

>>> reported("Cc1cc(C(=O)CCl)c(C)s1")
"< 4.00"
>>> reported("Cc1ccc(C(=O)CCl)s1")
"< 4.00"
>>> reported("Cc1csc(C(=O)CCl)c1")
"< 4.00"
